# System: MC-38
# EXPERIMENTAL PROTOCOL: Antiproliferative activity against mouse MC38 cells measured after 48 hrs incubation by MTT assay relative to control
# Type: functional, cell-based
# PARTICULARS: MC-38, 48 h
Doc: threshold 2000 nM (exclusive). Items with IC50 beneath it return criterion met; others return criterion not met.

CCCNNC(=O)c1ccc(CNC(=O)c2cnc(-c3ccc4ccccc4c3)[nH]2)cc1    criterion not met

Item CCCNNC(=O)c1ccc(CNC(=O)c2cnc(-c3ccc4occc4c3)[nH]2)cc1 : IC50 beneath 2000 nM, strictly?
criterion met

Lab note: confirm whether the reported IC50 for this compound is below 2000 nM, equality not counting. compound: Nc1ccccc1NC(=O)c1ccc(CNC(=O)OCc2cccnc2)cc1
criterion not met

Does the reported IC50 of the following compound sit strictly below 2000 nM? CCCNNC(=O)c1ccc(CNC(=O)c2cnc(-c3cccc4ccccc34)[nH]2)cc1
criterion not met

Does the reported IC50 of the following compound sit strictly below 2000 nM? CCCNNC(=O)c1ccc(CNC(=O)c2ncc(CNc3ccccc3)s2)cc1
criterion not met

hey, is IC50 for CCCNNC(=O)c1ccc(CNC(=O)c2cnc(-c3ccccc3)[nH]2)cc1 lower than 2000 nM or not?
criterion not met

* * *

Please respond with reported IC50 for every item in the list.
# Tested on: HCT-116
# EXPERIMENTAL PROTOCOL: Antiproliferative activity against human HCT-116 cells measured after 48 hrs incubation by MTT assay relative to control
# Assay type: functional, cell-based
# PARTICULARS: HCT-116, 48 h
State the value with its unit after it.

CCCNNC(=O)c1ccc(CNC(=O)c2cnc(-c3ccc4ccccc4c3)[nH]2)cc1    220 nM
CCCNNC(=O)c1ccc(CNC(=O)c2ncc(CNc3ccccc3)s2)cc1    310 nM
CCCNNC(=O)c1ccc(CNC(=O)c2cnc(-c3ccccc3)[nH]2)cc1    160 nM

Hello, I would appreciate it if you could give IC50 for each entry below.
1. CCCNNC(=O)c1ccc(CNC(=O)c2cnc(-c3cccc4ccccc34)[nH]2)cc1
2. CCCNNC(=O)c1ccc(CNC(=O)c2cnc(-c3ccc4occc4c3)[nH]2)cc1

["230 nM", "100 nM"]

* * *

# EXPERIMENTAL PROTOCOL: AUC (0 to t) in Sprague-Dawley rat at 20 mg/kg, po measured upto 12 hrs by LC-MS/MS analysis
# Type: ADME, organism-based
# PARTICULARS: in vivo
READOUT KIND: AUC(0-t) at 12 h (ng·h/mL)
Answers are plain numbers, in ng·h/mL.

Can you look up the measured AUC(0-t) at 12 h of CCCNNC(=O)c1ccc(CNC(=O)c2cnc(-c3ccc4occc4c3)[nH]2)cc1 for me?
1420

* * *

# EXPERIMENTAL PROTOCOL: Clearance in Sprague-Dawley rat at 20 mg/kg, po measured upto 12 hrs by LC-MS/MS analysis
# Format: ADME, organism-based
# PARTICULARS: in vivo
READOUT KIND: CL/F (mL/min/kg)
One number for each entry, in mL/min/kg.

// query CL/F value for entry CCCNNC(=O)c1ccc(CNC(=O)c2cnc(-c3ccc4occc4c3)[nH]2)cc1
259

* * *

# EXPERIMENTAL PROTOCOL: MRT (0 to t) in Sprague-Dawley rat at 20 mg/kg, po measured upto 12 hrs by LC-MS/MS analysis
# Assay type: ADME, organism-based
# PARTICULARS: in vivo
READOUT KIND: MRT last at 12 h

Fill blank: measured MRT last at 12 h of the compound CCCNNC(=O)c1ccc(CNC(=O)c2cnc(-c3ccc4occc4c3)[nH]2)cc1 is ____.
4.2 h

All figures here come from ChEMBL document CHEMBL6121046.
